Experiment: amyloid nucleation score (Sup35N fusion, yeast selection) (log enrichment); library NNK3; higher = more nucleation; inactive = no reads after selection;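 note: zero at mode of non-aggregating sequences after 7 days selection at 30°C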
QUANTITY_NAME: amyloid nucleation score

Some sequences with recorded amyloid nucleation score:
[
  {
    "SEQ_STRING": "FLGTVLLGWFIAMMSRCLGR",
    "amyloid nucleation score": 0.048
  },
  {
    "SEQ_STRING": "SVTLRLVFRCP",
    "amyloid nucleation score": 1.05
  },
  {
    "SEQ_STRING": "ISFRYHIYRSNCSQMNGRLT",
    "amyloid nucleation score": "inactive"
  },
  {
    "SEQ_STRING": "ICAGLWAD",
    "amyloid nucleation score": "inactive"
  },
  {
    "SEQ_STRING": "CNFVNSKRNFLYTLG",
    "amyloid nucleation score": "inactive"
  }
]

Reported amyloid nucleation score, sequence NVVCNDPPPGVYEDLGWTGI : ____
inactive

Reported amyloid nucleation score, sequence RVRYGGNKMHNSRKLACGQG : ____
0.743

Reported amyloid nucleation score, sequence CHPGASSTGSKLTSRNCL : ____
inactive

Reported amyloid nucleation score, sequence STHGWGGWLSVYIGNP : ____
inactive

Reported amyloid nucleation score, sequence TSYKYDSNR : ____
inactive

Reported amyloid nucleation score, sequence GSFTASFDGFQGSIMVERGG : ____
inactive

Reported amyloid nucleation score, sequence LIRTIEYLGRRISSQGCLHT : ____
inactive

Reported amyloid nucleation score, sequence SIRDYSFIASSC : ____
inactive

Reported amyloid nucleation score, sequence NDQAYMFYIGVYTTLCIGLK : ____
inactive

Reported amyloid nucleation score, sequence HHLSTRINCIDRVRSPNLRL : ____
-0.708

Reported amyloid nucleation score, sequence VHHEILHHGLFGEMSCVVEC : ____
inactive

Reported amyloid nucleation score, sequence DIFTPILMLCWV : ____
inactive

Reported amyloid nucleation score, sequence FRGEMLFKVQF : ____
0.275

Reported amyloid nucleation score, sequence CKARTSASSNQHRESVYGLE : ____
inactive

Reported amyloid nucleation score, sequence VGPRGGNVSEGPPRVWVNGC : ____
inactive

Reported amyloid nucleation score, sequence FITVNRQNGK : ____
inactive
